These data points were gathered from the supplement of paper PMC3334620.

Give PBM E-score for every item shown.
Assayed system: Vhr1 (UniProt P40522)
Sequence: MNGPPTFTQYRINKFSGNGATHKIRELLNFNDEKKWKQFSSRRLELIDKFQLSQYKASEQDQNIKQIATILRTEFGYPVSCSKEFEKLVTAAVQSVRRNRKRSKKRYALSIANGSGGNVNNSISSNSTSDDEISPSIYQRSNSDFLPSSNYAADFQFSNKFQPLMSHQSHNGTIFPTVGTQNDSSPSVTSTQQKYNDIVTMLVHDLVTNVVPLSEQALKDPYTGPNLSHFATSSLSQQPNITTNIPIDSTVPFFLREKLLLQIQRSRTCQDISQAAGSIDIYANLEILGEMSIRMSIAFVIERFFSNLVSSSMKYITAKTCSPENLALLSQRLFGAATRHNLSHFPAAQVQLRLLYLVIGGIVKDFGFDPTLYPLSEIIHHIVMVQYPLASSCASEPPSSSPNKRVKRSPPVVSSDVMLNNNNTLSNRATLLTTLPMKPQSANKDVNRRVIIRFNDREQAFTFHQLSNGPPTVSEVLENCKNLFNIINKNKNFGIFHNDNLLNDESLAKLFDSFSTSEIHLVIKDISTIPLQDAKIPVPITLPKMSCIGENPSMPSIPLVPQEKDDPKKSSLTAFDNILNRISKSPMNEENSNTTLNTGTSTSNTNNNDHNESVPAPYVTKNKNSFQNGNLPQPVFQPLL
Assay method text: PBM E-score (8-mer binding enrichment) (E-score (-0.5 to 0.5)); higher = stronger / more preferred TF binding
Setup conditions: protein concentration: 200 nM; construct: GST-full length
Over roughly 33,000 sequences, “E-score (-0.5 to 0.5)” has its median near -0.012; the highest 2% begin near 0.27. The entries come from a sample that favours the highest values as a whole.
Give only the figure.

QUERY: Output PBM E-score of `CTAGCGAC`
RESULT: -0.00899

QUERY: Give the measured PBM E-score for `AGGATTCA`
RESULT: -0.0305

QUERY: Please indicate PBM E-score recorded for `ATGAGCCA`
RESULT: 0.271

QUERY: Return PBM E-score (reported value) for this sequence: `CGGATTCA`
RESULT: 0.0469

QUERY: Please report PBM E-score for the following sequence: `ATAGCTCA`
RESULT: 0.0225

QUERY: # return recorded PBM E-score for input `CCGACTGA`
RESULT: -0.0635

QUERY: Please report the measured PBM E-score for `ATGGCTCG`
RESULT: 0.231

QUERY: Output measured PBM E-score for this item: `ACGATTCA`
RESULT: 0.112

QUERY: Read the entry `CTAGCTGA` and write its reported PBM E-score.
RESULT: 0.0125

QUERY: Answer with the recorded PBM E-score of `AATGCTAC` only.
RESULT: 0.072

QUERY: Please give the documented PBM E-score of `GTGATTCA`
RESULT: 0.408

QUERY: Tell us which PBM E-score value is on record for `GATCAGTA`
RESULT: 0.121

QUERY: For `CCGGCTCA` , write its PBM E-score.
RESULT: 0.0508

QUERY: Report PBM E-score for `CCGTTCAG`
RESULT: -0.184

QUERY: Please look at this sequence and report its PBM E-score: `ATGCTTTG`
RESULT: 0.0636

QUERY: For the sequence `AATCCTAC` , give its measured PBM E-score value.
RESULT: -0.159

QUERY: Tell me its PBM E-score given `CTTTATCA` as the entry.
RESULT: -0.157

QUERY: For the sequence `AACTAGTT` , give its reported PBM E-score.
RESULT: -0.125

QUERY: Assign PBM E-score to the following record: `ATTCTGGG`
RESULT: -0.107

QUERY: Consider the sequence `GCCACTCC` . State its measured PBM E-score.
RESULT: 0.205

QUERY: Specify measured PBM E-score for `AGTCGGTA` .
RESULT: -0.0272

QUERY: Assign PBM E-score to the following record: `CTGATTCA`
RESULT: 0.341

QUERY: Find the measured PBM E-score of `GAATCGAC` and report it.
RESULT: -0.005

QUERY: Quick one: give measured PBM E-score for `ATGATTCA`
RESULT: 0.443

QUERY: Give me measured PBM E-score, please, for this sequence: `TGGTCCAA`
RESULT: -0.0804

QUERY: Identify measured PBM E-score corresponding to `ACGACTCA`
RESULT: 0.445

QUERY: State, in one line, measured PBM E-score of `CCGATTTC`
RESULT: -0.129

QUERY: Identify measured PBM E-score corresponding to `AGAGCCTC`
RESULT: -0.228

QUERY: Report PBM E-score for `GTGGCTTA`
RESULT: -0.111

QUERY: Specify PBM E-score for `CTTACTCC` and stop.
RESULT: 0.0868

QUERY: Output PBM E-score of `ACCACAAC`
RESULT: 0.258

QUERY: // Input: `GTAGCTCA` . Output its PBM E-score only.
RESULT: 0.0143

QUERY: Report PBM E-score for `AAGGCCCT`
RESULT: -0.164

QUERY: Using known records, supply PBM E-score for `CAGATTCA`
RESULT: -0.232

QUERY: Answer with the recorded PBM E-score for the sequence listed here: `ATGGCTCA`
RESULT: 0.293

QUERY: Output measured PBM E-score for this item: `ACGACTTA`
RESULT: -0.0824

QUERY: Give the reported value of PBM E-score for this record: `ATAGGCCA`
RESULT: -0.159

QUERY: Report measured PBM E-score; entry is `ATGGCTCC`
RESULT: 0.325

QUERY: Answer with reported PBM E-score of `GTAGCTTA`
RESULT: 0.00186

QUERY: Supply recorded PBM E-score for `CTGACCCC` here.
RESULT: -0.0745

QUERY: Fill in PBM E-score for record `GTGGCTCA`
RESULT: 0.277

QUERY: Hello, please tell me recorded PBM E-score for this one: `CCGACTTA`
RESULT: -0.0517

QUERY: Quote PBM E-score reported for `CTGACTCC` please.
RESULT: 0.47

QUERY: Provide PBM E-score value for the following sequence: `CCGACTCA`
RESULT: 0.417

QUERY: Give the reported PBM E-score for this sequence. `CTGAGCCA`
RESULT: 0.247

QUERY: Specify PBM E-score for `ACGCCTTG` and stop.
RESULT: -0.0936

----------
Assayed system: Vhr1 (UniProt P40522)
Sequence: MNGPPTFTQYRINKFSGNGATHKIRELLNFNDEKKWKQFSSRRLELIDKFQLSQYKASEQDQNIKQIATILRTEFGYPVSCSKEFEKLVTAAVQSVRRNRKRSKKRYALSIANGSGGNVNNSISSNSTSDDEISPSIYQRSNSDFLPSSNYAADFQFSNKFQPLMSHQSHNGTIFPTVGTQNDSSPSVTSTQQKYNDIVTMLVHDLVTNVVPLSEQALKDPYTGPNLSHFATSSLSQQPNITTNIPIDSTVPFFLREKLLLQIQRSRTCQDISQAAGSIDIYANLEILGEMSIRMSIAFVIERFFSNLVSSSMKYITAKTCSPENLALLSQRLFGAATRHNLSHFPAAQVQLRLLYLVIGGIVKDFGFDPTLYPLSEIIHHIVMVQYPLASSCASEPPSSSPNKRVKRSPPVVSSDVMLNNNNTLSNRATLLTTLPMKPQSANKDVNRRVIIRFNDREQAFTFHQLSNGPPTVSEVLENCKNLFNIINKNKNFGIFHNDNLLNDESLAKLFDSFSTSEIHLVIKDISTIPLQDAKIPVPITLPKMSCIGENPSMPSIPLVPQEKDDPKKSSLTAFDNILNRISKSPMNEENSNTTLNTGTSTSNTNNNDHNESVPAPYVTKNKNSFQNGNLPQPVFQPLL
Assay method text: PBM E-score (8-mer binding enrichment) (E-score (-0.5 to 0.5)); higher = stronger / more preferred TF binding
Setup conditions: protein concentration: 200 nM; construct: GST-full length
The full ranking holds about 33,000 sequences; the median of “E-score (-0.5 to 0.5)” is about -0.012, and the highest 2% start at about 0.27. For the sample, the highest values were picked, then their nearest neighbours and some sequences at random.
Assay readout: PBM E-score
Give the value as a plain number.

QUERY: # return PBM E-score of `CCATTCAA` (system: Vhr1 (UniProt P40522))
RESULT: 0.0103

QUERY: Using Vhr1 (UniProt P40522) as the test system, report measured PBM E-score of `AGTCAACT` .
RESULT: 0.144

QUERY: Write down the reported PBM E-score (system: Vhr1 (UniProt P40522)) of `CGCCAAGA`
RESULT: -0.0615

QUERY: Under Vhr1 (UniProt P40522): report PBM E-score of `GCTGATTA` .
RESULT: 0.197

QUERY: Enter PBM E-score (test system Vhr1 (UniProt P40522)) for `AGTCAACC`
RESULT: 0.373

QUERY: // output PBM E-score; input `ATGTGTCA` ; system Vhr1 (UniProt P40522)
RESULT: 0.143

QUERY: Tell me its PBM E-score on Vhr1 (UniProt P40522): `ACTGCCCC`
RESULT: -0.0425

QUERY: Jot down PBM E-score (Vhr1 (UniProt P40522)) of `GGTTAGAC` .
RESULT: -0.00016

QUERY: Write down measured PBM E-score (Vhr1 (UniProt P40522)) for this sequence. `CACCTTAA`
RESULT: -0.0968

QUERY: Consider the sequence `GGTGATGA` tested on Vhr1 (UniProt P40522); state its PBM E-score.
RESULT: 0.233

QUERY: Retrieve PBM E-score on Vhr1 (UniProt P40522); query `ATGTGTGG`
RESULT: 0.08

QUERY: Specify PBM E-score for `CGTCAACG` , system Vhr1 (UniProt P40522).
RESULT: -0.0358

QUERY: Quote PBM E-score with test system Vhr1 (UniProt P40522) for `GGCTCTAA`
RESULT: -0.0817

QUERY: Please tell me the measured PBM E-score for `CTGTGTTA` ; system: Vhr1 (UniProt P40522).
RESULT: 0.169

QUERY: Name the value of PBM E-score reported for `AGTCAACG` when tested on Vhr1 (UniProt P40522).
RESULT: 0.278

QUERY: For Vhr1 (UniProt P40522), give the measured PBM E-score of the entry `AATGATGA`
RESULT: 0.163

QUERY: Supply PBM E-score measured with Vhr1 (UniProt P40522) for `ATGTGTGA` .
RESULT: 0.29

QUERY: Report the value of PBM E-score obtained on Vhr1 (UniProt P40522) for `GCTGATGA` .
RESULT: 0.185

QUERY: Provide PBM E-score, tested on Vhr1 (UniProt P40522), for `CTGTGTGC` .
RESULT: 0.177

QUERY: Recall the reported PBM E-score of `AACTGAAT` when tested on Vhr1 (UniProt P40522).
RESULT: 0.00051

QUERY: Using Vhr1 (UniProt P40522) as the test system, report measured PBM E-score of `AGGACTGG` .
RESULT: 0.113

QUERY: Give PBM E-score; test system Vhr1 (UniProt P40522); sequence `AAATAACG`
RESULT: -0.00647
